Would you mind telling me the reported Kd of each entry?
# Tested Target: T1, human IL-18BP (human, UniProt O95998 31-194)
# T1 construct: UniProt printed as 095998; also called hIL-18BP
# T1 sequence: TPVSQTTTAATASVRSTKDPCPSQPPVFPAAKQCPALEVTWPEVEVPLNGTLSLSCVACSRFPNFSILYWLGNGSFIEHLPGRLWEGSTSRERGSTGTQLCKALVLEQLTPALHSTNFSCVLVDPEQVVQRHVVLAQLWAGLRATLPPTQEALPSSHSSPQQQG
# Protocol Details: BLI, apparent KD

• SA301a LC-Q89A (antibody, V domains shown) VH: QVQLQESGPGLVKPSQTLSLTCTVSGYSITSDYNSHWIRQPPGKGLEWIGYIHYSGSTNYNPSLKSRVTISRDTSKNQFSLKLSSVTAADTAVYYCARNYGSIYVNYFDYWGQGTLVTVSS VL: EIVLTQSPATLSLSPGERATLSCSASSSVSYMYWYQQKPGQAPRPLIYRTSNLASGIPARFSGSGSGTDFTLTISSLEPEDFAVYYCAQYHSYPTFGGGTKVEIK = 0.39 nM

Record Kd per entry; entries follow.
1. SA301a LC-Y91I (antibody, name in Kabat numbering, V domains shown, IgG1 kappa) VH: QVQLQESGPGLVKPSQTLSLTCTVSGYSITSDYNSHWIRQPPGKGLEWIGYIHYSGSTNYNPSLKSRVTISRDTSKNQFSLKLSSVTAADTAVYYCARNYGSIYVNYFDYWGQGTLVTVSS VL: EIVLTQSPATLSLSPGERATLSCSASSSVSYMYWYQQKPGQAPRPLIYRTSNLASGIPARFSGSGSGTDFTLTISSLEPEDFAVYYCQQIHSYPTFGGGTKVEIK
2. SA301a LC-Q89Y (antibody, V domains shown) VH: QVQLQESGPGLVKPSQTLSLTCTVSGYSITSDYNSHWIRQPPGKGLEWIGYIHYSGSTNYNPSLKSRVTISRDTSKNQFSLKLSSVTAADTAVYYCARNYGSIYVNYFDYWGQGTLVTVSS VL: EIVLTQSPATLSLSPGERATLSCSASSSVSYMYWYQQKPGQAPRPLIYRTSNLASGIPARFSGSGSGTDFTLTISSLEPEDFAVYYCYQYHSYPTFGGGTKVEIK
3. SA301a LC-S93P (antibody, V domains shown) VH: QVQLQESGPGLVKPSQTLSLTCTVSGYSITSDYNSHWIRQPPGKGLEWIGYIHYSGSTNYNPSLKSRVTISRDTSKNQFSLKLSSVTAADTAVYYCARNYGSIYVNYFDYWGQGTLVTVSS VL: EIVLTQSPATLSLSPGERATLSCSASSSVSYMYWYQQKPGQAPRPLIYRTSNLASGIPARFSGSGSGTDFTLTISSLEPEDFAVYYCQQYHPYPTFGGGTKVEIK
4. SA301a LC-Y91T (antibody, name in Kabat numbering, V domains shown, IgG1 kappa) VH: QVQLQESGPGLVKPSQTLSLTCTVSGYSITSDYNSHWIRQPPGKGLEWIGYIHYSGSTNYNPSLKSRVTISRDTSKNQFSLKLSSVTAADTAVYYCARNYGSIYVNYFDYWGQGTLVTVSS VL: EIVLTQSPATLSLSPGERATLSCSASSSVSYMYWYQQKPGQAPRPLIYRTSNLASGIPARFSGSGSGTDFTLTISSLEPEDFAVYYCQQTHSYPTFGGGTKVEIK

0.42 nM
0.35 nM
0.41 nM
0.45 nM
